Data origin: paper PMC11901911

Record form. Attribute: inhibition at 100 µM. Fill in for each entry.
- assay_system: SARS-CoV-2 3CLpro (Severe acute respiratory syndrome coronavirus 2, UniProt P0DTD1)
- Construct: The kit contains assay buffer (125 mL, blank control), 2019-nCoV-2 3CLpro (500 μL), substrate (1 mL); purchased Beyotime Biotechnology (Shanghai, China) P0312M
- assay_protocol: biochemical
- test_context: compound concentration 100 μM; read-out: Inhibition rate (%) against 3CLpro

# annotated cases, reported inhibition at 100 µM shown
{"compound": "O=C(O[C@@H]1Cc2c(O)cc(O)cc2O[C@@H]1c1ccc(O)cc1)c1cc(O)c(O)c(O)c1 [Compound 7, (−)-epiafzelechin-3-O-gallate]", "inhibition at 100 µM": "> 50%"}
{"compound": "Oc1cc(O)c2c(c1)O[C@H](c1ccc(O)c(O)c1)[C@H](O)C2 [Compound 1, (−)-epicatechin]", "inhibition at 100 µM": "> 50%"}

Exam item: What does the record list as inhibition at 100 µM for CCN1C(=O)CC[C@H]1c1c(O)cc(O)c2c1O[C@H](c1cc(O)c(O)c(O)c1)[C@H](O)C2 ?
Marked response: > 50%
